Ref: patent US20250127913A1

biological target: folate receptor beta (Homo sapiens (Human), UniProt P14207); assay: Folate receptor SPR assay (biotinylated folate receptor beta on streptavidin chip); format: binding; settings: multi-cycle kinetics, 25° C., 1:1 model
Sequence (P14207 17-255): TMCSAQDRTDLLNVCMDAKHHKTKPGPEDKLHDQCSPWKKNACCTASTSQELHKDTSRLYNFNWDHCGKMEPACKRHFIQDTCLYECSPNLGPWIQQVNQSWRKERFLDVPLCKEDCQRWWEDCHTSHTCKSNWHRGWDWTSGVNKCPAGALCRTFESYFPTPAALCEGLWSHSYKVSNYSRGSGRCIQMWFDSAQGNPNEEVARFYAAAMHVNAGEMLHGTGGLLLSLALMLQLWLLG
For each of the compounds below, state its kd.
Note: unit s⁻¹ is implicit; provide only the numeric part.

Report kd for Cc1nc2cc(F)c(-c3cnc(N4CCN(C(=O)COCCn5cc(COCCOCCOCCOCCNC(=O)CCCNC(=O)c6ccc(NCc7cnc8nc(N)nc(O)c8n7)cc6)nn5)CC4)nc3)nc2c(N[C@H](C)c2cc(C#N)ccc2F)c1Cl please.
0.00129

Follow-up entry: Cc1nc2cc(F)c(-c3cnc(N4CCN(C(=O)COCCn5cc(CN(CCO)CCOCCOCCOCCNC(=O)CC[C@H](NC(=O)c6ccc(NCc7cnc8nc(N)nc(O)c8n7)cc6)C(=O)O)nn5)CC4)nc3)nc2c(N[C@H](C)c2cc(C#N)ccc2F)c1Cl
0.000178

Another compound to look at: Cc1nc2cc(F)c(-c3cnc(N4CCN(C(=O)COCCn5cc(COCCOCCOCCOCCNC(=O)CC[C@H](NC(=O)c6ccc(SCCc7cc8c(=O)[nH]c(N)nc8[nH]7)cc6)C(=O)O)nn5)CC4)nc3)nc2c(N[C@H](C)c2cc(C#N)ccc2F)c1Cl
0.000774

One more compound: Cc1nc2cc(F)c(-c3cnc(N4CCN(C(=O)COCCOCCOCCOCCOCCn5cc(CC[C@H](NC(=O)c6ccc(NCc7cnc8nc(N)nc(O)c8n7)cc6)C(=O)O)nn5)CC4)nc3)nc2c(N[C@H](C)c2cc(C#N)ccc2F)c1Cl
0.000337

Also need Cc1nc2cc(F)c(-c3cnc(N4CCN(C(=O)COCCOCCOCCOCCOCCOCCn5cc(CC[C@H](NC(=O)c6ccc(NCc7cnc8nc(N)nc(O)c8n7)cc6)C(=O)O)nn5)CC4)nc3)nc2c(N[C@H](C)c2cc(C#N)ccc2F)c1Cl , thanks.
8.7e-05

Do the same for Cc1nc2cc(F)c(-c3cnc(N4CCN(C(=O)COCCOCCOCCOCCOCCOCCn5cc(CC[C@H](NC(=O)c6ccc(CCc7ccc8nc(N)nc(O)c8c7)cc6)C(=O)O)nn5)CC4)nc3)nc2c(N[C@H](C)c2cc(C#N)ccc2F)c1Cl please
0.000591

Field entry: Cc1nc2cc(F)c(-c3cnc(N4CCN(C(=O)COCCOCCN5CCC6(CC5)CCN(C(=O)CC[C@H](NC(=O)c5ccc(NCc7cnc8nc(N)nc(O)c8n7)cc5)C(=O)O)CC6)CC4)nc3)nc2c(N[C@H](C)c2cc(C#N)ccc2F)c1Cl
0.000153

Entry Cc1nc2cc(F)c(-c3cnc(N4CCN(C(=O)COCCn5cc(COCCOCCOCCN6CCN(C(=O)[C@H](CCC(=O)O)NC(=O)c7ccc(NCc8cnc9nc(N)nc(O)c9n8)cc7)CC6)nn5)CC4)nc3)nc2c(N[C@H](C)c2cc(C#N)ccc2F)c1Cl please
0.000798

Try this compound next: Cc1nc2cc(F)c(-c3cnc(N4CCN(C(=O)COCCn5cc(CN(C)CCOCCOCCOCCNC(=O)CC[C@H](NC(=O)c6ccc(NCc7cnc8nc(N)nc(O)c8n7)cc6)C(=O)O)nn5)CC4)nc3)nc2c(N[C@H](C)c2cc(C#N)ccc2F)c1Cl
0.000169

Item: Cc1nc2cc(F)c(-c3cnc(N4CCN(C(=O)COCCn5cc(CCCN6CCC7(CC6)CCN(C(=O)CC[C@H](NC(=O)c6ccc(NCc8cnc9nc(N)nc(O)c9n8)cc6)C(=O)O)CC7)nn5)CC4)nc3)nc2c(N[C@H](C)c2cc(C#N)ccc2F)c1Cl
0.00013

###

Hi there, I'd appreciate the recorded TC 300 nM- tagless TNF Normalized for every entry that follows.
target: TNFα and streptavidin immobilized FOL2R (Homo sapiens (Human), UniProt P01375+P14207); experiment: Ternary complex SPR assay; type: binding; conditions: 300 nM untagged TNF, 10 nM compound; max response normalized to expected response
Sequence (P14207 17-230): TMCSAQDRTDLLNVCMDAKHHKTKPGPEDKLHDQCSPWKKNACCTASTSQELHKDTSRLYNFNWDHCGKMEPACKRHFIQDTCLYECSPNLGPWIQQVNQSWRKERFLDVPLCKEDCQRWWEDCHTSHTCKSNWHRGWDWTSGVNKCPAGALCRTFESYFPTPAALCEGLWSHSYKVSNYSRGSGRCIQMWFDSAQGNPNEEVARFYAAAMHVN
Sequence (P01375 77-233): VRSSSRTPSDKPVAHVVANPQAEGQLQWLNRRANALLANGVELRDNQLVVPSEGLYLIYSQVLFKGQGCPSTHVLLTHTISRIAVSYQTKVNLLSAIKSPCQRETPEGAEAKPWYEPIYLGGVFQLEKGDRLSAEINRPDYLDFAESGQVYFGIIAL
Express your answer in %, writing the number without its unit.

What TC 300 nM- tagless TNF Normalized value was documented for this compound, Cc1nc2cc(F)c(-c3cnc(N4CCN(C(=O)COCCOCCN5CCC6(CC5)CCN(C(=O)CC[C@H](NC(=O)c5ccc(NCc7cnc8nc(N)nc(O)c8n7)cc5)C(=O)O)CC6)CC4)nc3)nc2c(N[C@H](C)c2cc(C#N)ccc2F)c1Cl ?
17.3

And the next one, Cc1nc2cc(F)c(-c3cnc(N4CCN(C(=O)COCCn5cc(COCCOCCOCCOCCNC(=O)CC[C@H](NC(=O)c6ccc(NCc7cnc8nc(N)nc(O)c8n7)cc6)C(=O)O)nn5)CC4)nc3)nc2c(N[C@H](C)c2cc(C#N)ccc2F)c1Cl ?
17.6

For Cc1nc2cc(F)c(-c3cnc(N4CCN(C(=O)COCCn5cc(COCCOCCOCCOCCNC(=O)CC[C@H](NC(=O)c6ccc(SCCc7cc8c(=O)[nH]c(N)nc8[nH]7)cc6)C(=O)O)nn5)CC4)nc3)nc2c(N[C@H](C)c2cc(C#N)ccc2F)c1Cl then?
19.4

Would you mind doing Cc1nc2cc(F)c(-c3cnc(N4CCN(C(=O)COCCOCCOCCOCCOCCOCCn5cc(CC[C@H](NC(=O)c6ccc(CCc7ccc8nc(N)nc(O)c8c7)cc6)C(=O)O)nn5)CC4)nc3)nc2c(N[C@H](C)c2cc(C#N)ccc2F)c1Cl as well?
24.9

Another compound: Cc1nc2cc(F)c(-c3cnc(N4CC5(CN(C(=O)COCCOCCOCCOCCOCCOCCn6cc(CC[C@H](NC(=O)c7ccc(NCc8cnc9nc(N)nc(O)c9n8)cc7)C(=O)O)nn6)C5)C4)nc3)nc2c(N[C@H](C)c2cc(C#N)ccc2F)c1Cl
12.1

// next record Cc1nc2cc(F)c(-c3cnc(N4CCN(C(=O)COCCOCCOCCOCCOCCOCCn5cc(CC[C@H](NC(=O)c6ccc(N(C)Cc7ccc8nc(N)[nH]c(=O)c8c7)cc6)C(=O)O)nn5)CC4)nc3)nc2c(N[C@H](C)c2cc(C#N)ccc2F)c1Cl
15.1

Record: Cc1nc2cc(F)c(-c3cnc(N4CCN(C(=O)COCCOCCOCCOCCOCCOCCn5cc(CC[C@H](NC(=O)c6ccc(NCc7cnc8nc(N)nc(O)c8n7)cc6)C(=O)O)nn5)CC4)nc3)nc2c(N[C@H](C)c2cc(C#N)ccc2F)c1Cl
18.7

Same question, Cc1nc2cc(F)c(-c3cnc(N4CCN(C(=O)COCCOCCOCCOCCOCCn5cc(CC[C@H](NC(=O)c6ccc(NCc7cnc8nc(N)nc(O)c8n7)cc6)C(=O)O)nn5)CC4)nc3)nc2c(N[C@H](C)c2cc(C#N)ccc2F)c1Cl this time
15

Likewise for Cc1nc2cc(F)c(-c3cnc(N4CCN(C(=O)COCCn5cc(CN(C)CCOCCOCCOCCNC(=O)CC[C@H](NC(=O)c6ccc(NCc7cnc8nc(N)nc(O)c8n7)cc6)C(=O)O)nn5)CC4)nc3)nc2c(N[C@H](C)c2cc(C#N)ccc2F)c1Cl ?
18.5

###

Exercise: for every item that follows, state its recorded TC 60 nM taggless TNF normalized.
target: TNFα and streptavidin immobilized FOL2R (Homo sapiens (Human), UniProt P01375+P14207); assay: Ternary complex SPR assay; format: binding; details: 60 nM untagged TNF, 10 nM compound; max response normalized to expected response
The answer should read as a number with its unit following.

# get_value(readout= TC 60 nM taggless TNF normalized, system= TNFα and streptavidin immobilized FOL2R (Homo sapiens (Human), UniProt P01375+P14207)) for Cc1nc2cc(F)c(-c3cnc(N4CCN(C(=O)COCCOCCOCCOCCOCCOCCn5cc(CC[C@H](NC(=O)c6ccc(NCc7cnc8nc(N)nc(O)c8n7)cc6)C(=O)O)nn5)CC4)nc3)nc2c(N[C@H](C)c2cc(C#N)ccc2F)c1Cl
15.3%

Also Cc1nc2cc(F)c(-c3cnc(N4CCN(C(=O)COCCOCCOCCOCCOCCOCCn5cc(CC[C@H](NC(=O)c6ccc(CCc7ccc8nc(N)nc(O)c8c7)cc6)C(=O)O)nn5)CC4)nc3)nc2c(N[C@H](C)c2cc(C#N)ccc2F)c1Cl ?
15.7%

Thanks! And Cc1nc2cc(F)c(-c3cnc(N4CCN(C(=O)COCCOCCOCCOCCOCCn5cc(CC[C@H](NC(=O)c6ccc(NCc7cnc8nc(N)nc(O)c8n7)cc6)C(=O)O)nn5)CC4)nc3)nc2c(N[C@H](C)c2cc(C#N)ccc2F)c1Cl ?
11.6%

Subsequent entry: Cc1nc2cc(F)c(-c3cnc(N4CCN(C(=O)COCCOCCOCCOCCOCCOCCn5cc(CC[C@H](NC(=O)c6ccc(N(C)Cc7ccc8nc(N)[nH]c(=O)c8c7)cc6)C(=O)O)nn5)CC4)nc3)nc2c(N[C@H](C)c2cc(C#N)ccc2F)c1Cl
9.7%

# repeat for Cc1nc2cc(F)c(-c3cnc(N4CCN(C(=O)COCCOCCN5CCC6(CC5)CCN(C(=O)CC[C@H](NC(=O)c5ccc(NCc7cnc8nc(N)nc(O)c8n7)cc5)C(=O)O)CC6)CC4)nc3)nc2c(N[C@H](C)c2cc(C#N)ccc2F)c1Cl
10.8%

Please give the result for Cc1nc2cc(F)c(-c3cnc(N4CC5(CN(C(=O)COCCOCCOCCOCCOCCOCCn6cc(CC[C@H](NC(=O)c7ccc(NCc8cnc9nc(N)nc(O)c9n8)cc7)C(=O)O)nn6)C5)C4)nc3)nc2c(N[C@H](C)c2cc(C#N)ccc2F)c1Cl too.
4%

Try this molecule too: CN(Cc1cnc2nc(N)[nH]c(=O)c2n1)c1ccc(C(=O)N[C@@H](CCc2cn(CCOCCOCCOCCOCCOCCOCC(=O)N3CCN(c4ncc(-c5ccc6nc(COc7cccc(N8CCCC8=O)c7)n(Cc7ccccc7OC(F)F)c6c5)cn4)CC3)nn2)C(=O)O)cc1
14.3%

Same question for Cc1nc2cc(F)c(-c3cnc(N4CCN(C(=O)COCCn5cc(COCCOCCOCCOCCNC(=O)CCCNC(=O)c6ccc(NCc7cnc8nc(N)nc(O)c8n7)cc6)nn5)CC4)nc3)nc2c(N[C@H](C)c2cc(C#N)ccc2F)c1Cl please.
12.3%
